Recorded activity coefficient for the following compounds
# experiment-description: activity coefficient (dimensionless); of the first substance listed, at infinite dilution; xn = mol fraction of the nth substance listed
# cond: 353.15 K; 101 kPa; Liquid; Chromatography; x1 = 0

compound: CCCCCCCC [octane] + CCCCn1cc[n+](C)c1.O=[N+]([O-])[O-]
activity coefficient: 113
//
compound: CCCCCC [hexane] + CCCCn1cc[n+](C)c1.O=[N+]([O-])[O-]
activity coefficient: 41.8
//
compound: Cc1ccccc1C [1,2-dimethylbenzene] + CCCCn1cc[n+](C)c1.O=[N+]([O-])[O-]
activity coefficient: 4.58
//
compound: Cc1ccc(C)cc1 [1,4-dimethylbenzene] + CCCCn1cc[n+](C)c1.O=[N+]([O-])[O-]
activity coefficient: 5.24
//
compound: CCCCCCC [heptane] + CCCCn1cc[n+](C)c1.O=[N+]([O-])[O-]
activity coefficient: 73.2
//
compound: Cc1cccc(C)c1 [1,3-dimethylbenzene] + CCCCn1cc[n+](C)c1.O=[N+]([O-])[O-]
activity coefficient: 5.62
//
compound: CCc1ccccc1 [ethylbenzene] + CCCCn1cc[n+](C)c1.O=[N+]([O-])[O-]
activity coefficient: 5.59
//
compound: CCOC(C)=O [ethyl acetate] + CCCCn1cc[n+](C)c1.O=[N+]([O-])[O-]
activity coefficient: 3.18
//
compound: CC(C)=O [acetone] + CCCCn1cc[n+](C)c1.O=[N+]([O-])[O-]
activity coefficient: 1.23

====

# experiment-description: activity coefficient (dimensionless); of the first substance listed, at infinite dilution; xn = mol fraction of the nth substance listed
# cond: 323.15 K; 101 kPa; Liquid; Chromatography; x1 = 0
Recorded activity coefficient for the following compounds

compound: Cc1ccc(C)cc1 [1,4-dimethylbenzene] + CCCCn1cc[n+](C)c1.O=[N+]([O-])[O-]
activity coefficient: 5.16

compound: CCc1ccccc1 [ethylbenzene] + CCCCn1cc[n+](C)c1.O=[N+]([O-])[O-]
activity coefficient: 5.56

compound: Cc1cccc(C)c1 [1,3-dimethylbenzene] + CCCCn1cc[n+](C)c1.O=[N+]([O-])[O-]
activity coefficient: 5.5

compound: c1ccccc1 [benzene] + CCCCn1cc[n+](C)c1.O=[N+]([O-])[O-]
activity coefficient: 1.91

compound: CCCO [propan-1-ol] + CCCCn1cc[n+](C)c1.O=[N+]([O-])[O-]
activity coefficient: 0.706

compound: CC#N [acetonitrile] + CCCCn1cc[n+](C)c1.O=[N+]([O-])[O-]
activity coefficient: 0.615

compound: CC1CCCCC1 [methylcyclohexane] + CCCCn1cc[n+](C)c1.O=[N+]([O-])[O-]
activity coefficient: 39.4

====

# experiment-description: activity coefficient (dimensionless); of the first substance listed, at infinite dilution; xn = mol fraction of the nth substance listed
# cond: 343.15 K; 101 kPa; Liquid; Chromatography; x1 = 0
Each entry belongs to exactly one class, chosen by where its activity coefficient falls: bottom bin (below 2), middle bin (2 to below 20), top bin (20 or more)

compound: CCO [ethanol] + CCCCn1cc[n+](C)c1.O=[N+]([O-])[O-]
assigned-category: bottom bin

compound: C1CCCCC1 [cyclohexane] + CCCCn1cc[n+](C)c1.O=[N+]([O-])[O-]
assigned-category: top bin

compound: Cc1ccccc1 [toluene] + CCCCn1cc[n+](C)c1.O=[N+]([O-])[O-]
assigned-category: middle bin

compound: Cc1ccccc1C [1,2-dimethylbenzene] + CCCCn1cc[n+](C)c1.O=[N+]([O-])[O-]
assigned-category: middle bin

compound: CCCCCCCCC [nonane] + CCCCn1cc[n+](C)c1.O=[N+]([O-])[O-]
assigned-category: top bin

compound: CC(C)=O [acetone] + CCCCn1cc[n+](C)c1.O=[N+]([O-])[O-]
assigned-category: bottom bin

compound: CC1CCCCC1 [methylcyclohexane] + CCCCn1cc[n+](C)c1.O=[N+]([O-])[O-]
assigned-category: top bin

compound: CCCCCCC [heptane] + CCCCn1cc[n+](C)c1.O=[N+]([O-])[O-]
assigned-category: top bin

compound: CCCCCCCC [octane] + CCCCn1cc[n+](C)c1.O=[N+]([O-])[O-]
assigned-category: top bin

compound: ClC(Cl)(Cl)Cl [tetrachloromethane] + CCCCn1cc[n+](C)c1.O=[N+]([O-])[O-]
assigned-category: middle bin

compound: Cc1ccc(C)cc1 [1,4-dimethylbenzene] + CCCCn1cc[n+](C)c1.O=[N+]([O-])[O-]
assigned-category: middle bin

compound: ClC(Cl)Cl [trichloromethane] + CCCCn1cc[n+](C)c1.O=[N+]([O-])[O-]
assigned-category: bottom bin

compound: Cc1cccc(C)c1 [1,3-dimethylbenzene] + CCCCn1cc[n+](C)c1.O=[N+]([O-])[O-]
assigned-category: middle bin

compound: CC#N [acetonitrile] + CCCCn1cc[n+](C)c1.O=[N+]([O-])[O-]
assigned-category: bottom bin

compound: CCCCCC [hexane] + CCCCn1cc[n+](C)c1.O=[N+]([O-])[O-]
assigned-category: top bin

compound: CCOC(C)=O [ethyl acetate] + CCCCn1cc[n+](C)c1.O=[N+]([O-])[O-]
assigned-category: middle bin

compound: ClCCl [dichloromethane] + CCCCn1cc[n+](C)c1.O=[N+]([O-])[O-]
assigned-category: bottom bin
